test system: XF 498 CNS; assay: NCI tumour cell line growth inhibition, 48 h
The entries below come with measured TGI values attached.

COMPOUND: COC1(OC)CC2CCCCC2=C(C)N1S(=O)(=O)c1ccccc1 (stereo not given)
TGI: > 100 µM
--
COMPOUND: C[C@@H](CC(O)C1OC1(C)C)[C@@H]1CC[C@]2(C)C3=CCC4C(C)(C)C(O)CC[C@]4(C)C3CCC12C (stereo not given in full)
TGI: 46.4 µM
--
COMPOUND: CC(=O)OC(C[C@H](C)[C@@H]1CC[C@]2(C)C3=CCC4C(C)(C)C(=O)CC[C@]4(C)C3CCC12C)C1OC1(C)C (stereo not given in full)
TGI: 43.8 µM
--
COMPOUND: OCCCCOC(c1ccccc1)(c1ccccc1)c1ccccc1
TGI: > 100 µM
--
COMPOUND: O=C(O)CNS(=O)(=O)c1ccc(NC(=O)c2ccccc2[N+](=O)[O-])cc1
TGI: > 100 µM
--
COMPOUND: C/C(=N\OCC(O)CNC(C)C)c1ccc2c(c1)NC(=O)CS2 (stereo not given)
TGI: > 100 µM
--
COMPOUND: CCN(CC)c1ccc2cc3ccc(=[N+](CC)CC)cc-3oc2c1
TGI: 7.99 µM
--
COMPOUND: CN(C)CCCN1N=Nc2cccc3cccc1c23
TGI: > 100 µM
--
COMPOUND: O=c1oc2c3ccc4ccccc4c3n(CCCN3CCCCC3)c2c2ccccc12
TGI: > 100 µM
--
COMPOUND: O=C1C(Cl)C(c2cc(Br)ccc2O)N1n1cnc2ccccc2c1=O (stereo not given)
TGI: > 100 µM
